- MEASUREMENT TARGET: Protein arginine N-methyltransferase 3 (Homo sapiens, UniProt O60678)
- Sequence (O60678 whole entry): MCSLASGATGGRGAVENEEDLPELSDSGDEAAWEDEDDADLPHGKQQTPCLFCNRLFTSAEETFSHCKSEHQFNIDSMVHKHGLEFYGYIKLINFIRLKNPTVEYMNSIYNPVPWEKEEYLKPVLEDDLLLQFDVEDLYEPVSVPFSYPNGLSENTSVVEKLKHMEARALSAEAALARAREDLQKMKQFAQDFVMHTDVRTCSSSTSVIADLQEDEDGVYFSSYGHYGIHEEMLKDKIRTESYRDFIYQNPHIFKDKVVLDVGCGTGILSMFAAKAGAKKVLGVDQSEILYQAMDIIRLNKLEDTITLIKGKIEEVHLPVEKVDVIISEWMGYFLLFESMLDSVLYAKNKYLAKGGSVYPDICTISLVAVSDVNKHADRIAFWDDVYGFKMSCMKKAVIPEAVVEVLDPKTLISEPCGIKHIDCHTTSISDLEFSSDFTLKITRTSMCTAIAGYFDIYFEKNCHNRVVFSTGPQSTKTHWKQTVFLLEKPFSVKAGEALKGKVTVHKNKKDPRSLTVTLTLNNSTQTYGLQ
- PROTOCOL DETAILS: Inhibition of recombinant human His-tagged PRMT3 expressed in Escherichia coli BL21 (DE3) using biotin-labeled SMD1 as substrate incubated for 10 mins in presence of [3H]-SAM cofactor by scintillation proximity assay
Field: pIC50. Provide a value for each of the compounds that follow.
Numbers only, as −log10 of the molar value.

// below: answered compounds
Nc1nc(N)c2nc3c(ccc4ccccc43)nc2n1 | 4.25
CNC(=N)N/N=C(/C)c1ccc2oc3ccc(/C(C)=N/NC(=N)NC)cc3c2c1 | 5.09
CNCC(=O)NC1=CC2C(=O)c3ccc(NC(=O)CNC)cc3C(=O)C2C=C1 (stereo not given) | 4.94

Go through the list and state pIC50 for each entry.
1. N=C(N)c1ccc(Nc2ccc(-c3cc4ccc(C(=N)N)cc4[nH]3)cc2)cc1
2. c1cc2cc(-c3ccc4oc(C5=NCCN5)cc4c3)[nH]c2cc1C1=NCCN1

Result:
5.47
4.72

###

- System: K562
- PROTOCOL DETAILS: Antiproliferative activity against human K562 cells assessed as inhibition of cell growth measured after 72 hrs by CellTiter-Glo assay
- Assay type: functional, cell-based
- SETTINGS: K562, 72 h
MEASURE: IC50 (nM)
One number for each entry, in nM.

Problem: Respond only with IC50 recorded for N=C(N)c1ccc(Nc2ccc(-c3cc4ccc(C(=N)N)cc4[nH]3)cc2)cc1
Result: 1080

###

- MEASUREMENT TARGET: UniProt:Q96LA8
- Sequence (Q96LA8 whole entry): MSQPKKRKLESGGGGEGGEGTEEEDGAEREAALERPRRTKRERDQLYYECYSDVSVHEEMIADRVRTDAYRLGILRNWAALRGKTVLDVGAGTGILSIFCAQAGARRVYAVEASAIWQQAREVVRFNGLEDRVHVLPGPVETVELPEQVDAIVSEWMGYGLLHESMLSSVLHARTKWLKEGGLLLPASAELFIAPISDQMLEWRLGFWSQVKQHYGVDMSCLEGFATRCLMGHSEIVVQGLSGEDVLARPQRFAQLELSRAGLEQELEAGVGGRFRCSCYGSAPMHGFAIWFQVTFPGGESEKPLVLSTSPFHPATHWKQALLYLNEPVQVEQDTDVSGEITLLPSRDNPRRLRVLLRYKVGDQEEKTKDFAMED
// NB: equality with 10 µM counts as n; only IC50 strictly below is y

N=C(N)c1ccc(Nc2ccc(-c3cc4ccc(C(=N)N)cc4[nH]3)cc2)cc1 | y
CNC(=N)N/N=C(/C)c1ccc2oc3ccc(/C(C)=N/NC(=N)NC)cc3c2c1 | y
Nc1nc(N)c2nc3c(ccc4ccccc43)nc2n1 | n
c1cc2cc(-c3ccc4oc(C5=NCCN5)cc4c3)[nH]c2cc1C1=NCCN1 | n

Now for another entry.
Problem: # TODO verify IC50 < 10 µM strictly for this compound: CNCC(=O)NC1=CC2C(=O)c3ccc(NC(=O)CNC)cc3C(=O)C2C=C1 (stereo not given)
Result: n

###

Field: pIC50. Provide a value for each of the compounds that follow.
- MEASUREMENT TARGET: Histone-arginine methyltransferase CARM1 (Homo sapiens, UniProt Q86X55)
- Sequence (Q86X55 whole entry): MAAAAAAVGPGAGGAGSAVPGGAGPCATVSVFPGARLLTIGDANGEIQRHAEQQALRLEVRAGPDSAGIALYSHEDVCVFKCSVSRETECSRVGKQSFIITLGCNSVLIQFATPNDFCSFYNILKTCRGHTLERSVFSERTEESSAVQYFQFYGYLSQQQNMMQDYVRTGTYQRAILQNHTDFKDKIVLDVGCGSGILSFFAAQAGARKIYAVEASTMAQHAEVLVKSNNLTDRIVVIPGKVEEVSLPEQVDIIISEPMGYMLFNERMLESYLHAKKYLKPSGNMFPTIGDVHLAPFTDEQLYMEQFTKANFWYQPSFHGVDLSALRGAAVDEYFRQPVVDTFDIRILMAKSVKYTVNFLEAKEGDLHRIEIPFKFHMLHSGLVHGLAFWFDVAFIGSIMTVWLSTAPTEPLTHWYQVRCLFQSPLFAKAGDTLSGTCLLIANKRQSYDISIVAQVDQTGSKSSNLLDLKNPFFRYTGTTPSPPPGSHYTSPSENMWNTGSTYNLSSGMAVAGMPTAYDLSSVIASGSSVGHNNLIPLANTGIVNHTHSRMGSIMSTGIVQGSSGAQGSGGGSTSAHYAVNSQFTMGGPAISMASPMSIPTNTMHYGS
- PROTOCOL DETAILS: Inhibition of recombinant GST-tagged CARM1 (unknown origin) expressed in Escherichia coli using […] incubated for 120 mins in presence of [3H]-SAM cofactor by radioactive filter plate assay
One number for each entry, as −log10 of the molar value.

N=C(N)c1ccc(Nc2ccc(-c3cc4ccc(C(=N)N)cc4[nH]3)cc2)cc1 | 4.56
CNC(=N)N/N=C(/C)c1ccc2oc3ccc(/C(C)=N/NC(=N)NC)cc3c2c1 | 4.81
Nc1nc(N)c2nc3c(ccc4ccccc43)nc2n1 | 5.04
c1cc2cc(-c3ccc4oc(C5=NCCN5)cc4c3)[nH]c2cc1C1=NCCN1 | 3.81

// below: pIC50 requested for another compound
Problem: Report value only: pIC50, Histone-arginine methyltransferase CARM1 (Homo sapiens, UniProt Q86X55), CNCC(=O)NC1=CC2C(=O)c3ccc(NC(=O)CNC)cc3C(=O)C2C=C1 (stereo not given)
Result: 4.91
